Experiment: Antioxidant activity assessed as O2 free radical scavenging activity produced from dimethylpyridine-N-oxide by ESR assay
Type: physicochemical
measure_name: EC50
Show the value, then the unit it is measured in.

[Q] Dear colleague, I am looking for the recorded EC50 of the following compound: COC(=O)c1cc(-c2nc(C(=O)OCc3ccccc3)cc3c2[nH]c2ccccc23)ccc1O
[A] 285 µM

---

Assay: Antioxidant activity assessed as NO free radical scavenging activity produced from N-methyl-D-glucamine dithiocarbamate by ESR assay
Assay type: physicochemical
measure_name: pEC50
Conceptually, pEC50 converts a concentration in mol/L into minus its log10.

[Q] Dear colleague, I am looking for the recorded pEC50 of the following molecule: COC(=O)c1cc(-c2nc(C(=O)OCc3ccccc3)cc3c2[nH]c2ccccc23)ccc1O
[A] 4.14
